Measured Kd, listed per entry for reference.
- Target or system: T1, Aβ (1-42) peptide (human)
- T1 construct: also called Aβ1-42 fibers; Aβ4
- Assay explanation: SPR, immobilized fibers;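 further: biacore SPR using in vitro grown Aβ1-40 or Aβ1-42 fibrils immobilized on the chip with Fab analytes, KD from koff/kon fits or equilibrium isotherms based on total Fab concentration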

- Binder: "MS-Roche #7.9.H3 Fab (Fab, V domains shown, assembled) VH: QVQLVESGGGLVQPGGSLRLSCAASGFTFSSYAMSWVRQAPGKGLEWVSAINYQGNRKYYADSVKGRFTISRDNSKNTLYLQMNSLRAEDTAVYYCARGKGNTHKPYGYVRYFDVWGQGTLVTVSS VL: DIVLTQSPATLSLSPGERATLSCRASQSVSSSYLAWYQQKPGQAPRLLIYGASSRATGVPARFSGSGSGTDFTLTISSLEPEDFATYYCLQIYNMPITFGQGTKVEIKR"
  Kd: "2.8 nM"
- Binder: "MS-Roche #7.9.H5 Fab (Fab, V domains shown, assembled) VH: QVQLVESGGGLVQPGGSLRLSCAASGFTFSSYAMSWVRQAPGKGLEWVSAINHAGNKKYYADSVKGRFTISRDNSKNTLYLQMNSLRAEDTAVYYCARGKGNTHKPYGYVRYFDVWGQGTLVTVSS VL: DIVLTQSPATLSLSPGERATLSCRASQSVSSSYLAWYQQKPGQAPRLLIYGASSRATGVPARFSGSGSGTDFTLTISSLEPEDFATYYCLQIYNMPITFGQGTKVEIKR"
  Kd: "1.8 nM"
- Binder: "MS-Roche #7.9.H9 Fab (Fab, V domains shown, assembled) VH: QVQLVESGGGLVQPGGSLRLSCAASGFTFSSYAMSWVRQAPGKGLEWVSAINGKGNKKYYADSVKGRFTISRDNSKNTLYLQMNSLRAEDTAVYYCARGKGNTHKPYGYVRYFDVWGQGTLVTVSS VL: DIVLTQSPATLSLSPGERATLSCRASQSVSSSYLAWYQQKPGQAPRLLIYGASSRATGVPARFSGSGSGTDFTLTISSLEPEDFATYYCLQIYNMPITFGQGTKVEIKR"
  Kd: "0.9 nM"
